# System: RARa:RXR (NR concentration 270 nM, RXRa partner concentration 90 nM)
# Assay Info: PBM binding z-score (relative to random genomic background probes); higher = stronger binding; sequences stand for … in GC…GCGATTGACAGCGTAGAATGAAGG
// map PBM binding z-score onto a label; ranges LOW (below 1), MID (1 to below 4), HIGH (4 or more)

| Residue Codes | Study Target | Category |
| --- | --- | --- |
| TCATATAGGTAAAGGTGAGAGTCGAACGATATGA | RARa:RXR (NR concentration 270 nM, RXRa partner concentration 90 nM) | MID |
| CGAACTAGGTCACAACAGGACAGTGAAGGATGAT | RARa:RXR (NR concentration 270 nM, RXRa partner concentration 90 nM) | MID |
| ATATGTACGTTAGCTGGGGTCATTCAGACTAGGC | RARa:RXR (NR concentration 270 nM, RXRa partner concentration 90 nM) | HIGH |
| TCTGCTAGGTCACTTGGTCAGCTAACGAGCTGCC | RARa:RXR (NR concentration 270 nM, RXRa partner concentration 90 nM) | MID |
| TCGTGTAGATCAATAGAGGTTAAGAAAGTGCGCT | RARa:RXR (NR concentration 270 nM, RXRa partner concentration 90 nM) | MID |
| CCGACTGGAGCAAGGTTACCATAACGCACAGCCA | RARa:RXR (NR concentration 270 nM, RXRa partner concentration 90 nM) | LOW |
| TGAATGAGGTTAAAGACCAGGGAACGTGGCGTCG | RARa:RXR (NR concentration 270 nM, RXRa partner concentration 90 nM) | MID |
| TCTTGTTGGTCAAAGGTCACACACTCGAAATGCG | RARa:RXR (NR concentration 270 nM, RXRa partner concentration 90 nM) | HIGH |
| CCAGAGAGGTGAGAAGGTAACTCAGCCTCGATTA | RARa:RXR (NR concentration 270 nM, RXRa partner concentration 90 nM) | MID |
| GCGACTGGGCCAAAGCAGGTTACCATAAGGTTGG | RARa:RXR (NR concentration 270 nM, RXRa partner concentration 90 nM) | LOW |
| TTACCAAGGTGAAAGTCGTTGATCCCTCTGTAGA | RARa:RXR (NR concentration 270 nM, RXRa partner concentration 90 nM) | MID |
| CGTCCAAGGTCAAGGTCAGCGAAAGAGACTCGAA | RARa:RXR (NR concentration 270 nM, RXRa partner concentration 90 nM) | HIGH |
| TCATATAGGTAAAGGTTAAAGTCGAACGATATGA | RARa:RXR (NR concentration 270 nM, RXRa partner concentration 90 nM) | MID |
| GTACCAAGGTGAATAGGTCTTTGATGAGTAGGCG | RARa:RXR (NR concentration 270 nM, RXRa partner concentration 90 nM) | LOW |
| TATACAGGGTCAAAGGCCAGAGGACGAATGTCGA | RARa:RXR (NR concentration 270 nM, RXRa partner concentration 90 nM) | HIGH |
| AATTCAGGGTCATCGTAGGCCAGAGTACGCACAG | RARa:RXR (NR concentration 270 nM, RXRa partner concentration 90 nM) | HIGH |
| TCATATAGGTAAGGGTGAAAGTCGAACGATATGA | RARa:RXR (NR concentration 270 nM, RXRa partner concentration 90 nM) | MID |
| TTACCAATGTGAGCTGAGGTCGTTGATCCAACTC | RARa:RXR (NR concentration 270 nM, RXRa partner concentration 90 nM) | MID |
| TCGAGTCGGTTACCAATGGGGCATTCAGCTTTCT | RARa:RXR (NR concentration 270 nM, RXRa partner concentration 90 nM) | LOW |
| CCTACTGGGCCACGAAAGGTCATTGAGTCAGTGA | RARa:RXR (NR concentration 270 nM, RXRa partner concentration 90 nM) | HIGH |
| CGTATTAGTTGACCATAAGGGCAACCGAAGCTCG | RARa:RXR (NR concentration 270 nM, RXRa partner concentration 90 nM) | LOW |
| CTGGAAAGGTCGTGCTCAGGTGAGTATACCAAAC | RARa:RXR (NR concentration 270 nM, RXRa partner concentration 90 nM) | HIGH |
| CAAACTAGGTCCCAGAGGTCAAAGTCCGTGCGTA | RARa:RXR (NR concentration 270 nM, RXRa partner concentration 90 nM) | HIGH |
| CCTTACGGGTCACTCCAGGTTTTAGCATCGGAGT | RARa:RXR (NR concentration 270 nM, RXRa partner concentration 90 nM) | HIGH |
| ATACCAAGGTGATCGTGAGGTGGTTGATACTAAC | RARa:RXR (NR concentration 270 nM, RXRa partner concentration 90 nM) | LOW |

Where do these numbers come from? They come from the supplement of paper PMC6555819.
